Numbers sourced from patent US20230330093A1.

Tested on: cynomolgus monkeys
Assay: 4-week safety study: serum biochemistry
Type: in vivo
Conditions: Male, 20 mg/kg, d0
measuredProperty: CREA (µM)
Answers are plain numbers, in µM.

May I ask what CREA has been recorded for COC(=O)NCCCn1nc([C@@H](C)N(C(=O)[C@H]2CNCCO2)C2CC2)c2ccc(C)nc21 ?
64.2

###

Test: Plasma pharmacokinetics and bioavailability after intravenous and oral administration
Assay type: in vivo, cynomolgus monkeys
Conditions: both sexes, cynomolgus monkey, plasma, iv, 1 mg/kg, Monkey, 1 mg/kg iv
measuredProperty: half-life (h)
Answers are plain numbers, in h.

May I ask what half-life has been recorded for COC(=O)NCCCn1nc([C@@H](C)N(C(=O)[C@H]2CNCCO2)C2CC2)c2ccc(C)nc21 ?
2.73

###

System: cynomolgus monkeys
Experiment: 4-week safety study: serum biochemistry
Format: in vivo
Details: Male, 100 mg/kg, d26
measuredProperty: CREA (µM)
Give bare numbers, in µM.

May I ask what CREA has been recorded for COC(=O)NCCCn1nc([C@@H](C)N(C(=O)[C@H]2CNCCO2)C2CC2)c2ccc(C)nc21 [compound of Formula I] ?
63

###

Assay: Plasma pharmacokinetics and bioavailability after intravenous and oral administration
Assay type: in vivo, cynomolgus monkeys
Details: both sexes, cynomolgus monkey, plasma; monkeys, calculated from AUC0-24h after iv and po administration
Protocol: Cynomolgus monkeys (3/sex/group: weight 3-5 kg, age 5-6 years old) were obtained from SuZhou XiShan ZhongKe Laboratory Animals (Shanghai, China). Animals were housed for a 7-day acclimation period before study. […] The compound of Formula I was intravenously or orally administered to cynomolgus monkeys fasted overnight. […] The concentrations of the compound of Formula I in plasma were determined by the validated liquid chromatography-tandem mass spectrometry method. […]
measuredProperty: bioavailability

May I ask what bioavailability has been recorded for COC(=O)NCCCn1nc([C@@H](C)N(C(=O)[C@H]2CNCCO2)C2CC2)c2ccc(C)nc21 ?
3.3 to 11.3%

###

Test: Plasma pharmacokinetics and bioavailability after intravenous and oral administration
Assay type: in vivo, cynomolgus monkeys
Conditions: both sexes, cynomolgus monkey, plasma, po, 9 mg/kg, oral 1, 3, 9 mg/kg, monkey plasma
measuredProperty: half-life

May I ask what half-life has been recorded for COC(=O)NCCCn1nc([C@@H](C)N(C(=O)[C@H]2CNCCO2)C2CC2)c2ccc(C)nc21 ?
2.73 to 5.99 h

###

Test: Plasma pharmacokinetics and bioavailability after intravenous and oral administration
Assay type: in vivo, cynomolgus monkeys
Details: both sexes, cynomolgus monkey, plasma; Monkey, 1 mg/kg po
measuredProperty: Tmax (h)
Answers are plain numbers, in h.

May I ask what Tmax has been recorded for COC(=O)NCCCn1nc([C@@H](C)N(C(=O)[C@H]2CNCCO2)C2CC2)c2ccc(C)nc21 ?
1

###

Tested on: cynomolgus monkeys
Test: 4-week safety study: serum biochemistry
Type: in vivo
Settings: Male, 20 mg/kg, d 56
measuredProperty: CREA
The answer consists of two parts: a number and, after it, its unit.

May I ask what CREA has been recorded for COC(=O)NCCCn1nc([C@@H](C)N(C(=O)[C@H]2CNCCO2)C2CC2)c2ccc(C)nc21 [compound of Formula I] ?
64 µM

###

Experiment: Plasma pharmacokinetics and bioavailability after intravenous and oral administration
Type: in vivo, cynomolgus monkeys
Details: both sexes, cynomolgus monkey, plasma; Monkey, 1 mg/kg iv
Method: Cynomolgus monkeys (3/sex/group: weight 3-5 kg, age 5-6 years old) were obtained from SuZhou XiShan ZhongKe Laboratory Animals (Shanghai, China). Animals were housed for a 7-day acclimation period before study. […] The compound of Formula I was intravenously or orally administered to cynomolgus monkeys fasted overnight. […] The concentrations of the compound of Formula I in plasma were determined by the validated liquid chromatography-tandem mass spectrometry method. […]
measuredProperty: AUC (ng·h/mL)
Numbers only, in ng·h/mL.

May I ask what AUC has been recorded for COC(=O)NCCCn1nc([C@@H](C)N(C(=O)[C@H]2CNCCO2)C2CC2)c2ccc(C)nc21 ?
421
